Reference for the values: ChEMBL document CHEMBL4513216

# assayText: Toxicity liver stage against HepG2, at 10uM
# Format: cell-based
# Design: test concentration 10 uM, cell line HepG2-A16-CD81EGFP
# conditionDetails: human, HepG2-A16-CD81EGFP cells; read-out: INHIBITION
Here, each record is paired with measured cytotoxicity at 10 µM data.
Lab book: enter the figure in %, no units written.

>>> df
                                   molecule   val
0  O=C([C@@H]1CC[C@@H]2[C@@H](CCN2c2ccncn2)O1)N1CCCCO1  3.13

Requested field: cytotoxicity at 10 µM. Item: c1ccc(OCC2C[C@@H]3[C@@H](C2)OCCN3CC2CCOCC2)nc1 (stereo not given in full)
2.75

Requested field: cytotoxicity at 10 µM. Item: CC(C)c1nnsc1CNC(=O)C1CCN(C(C)C)CC1
-8.05

Requested field: cytotoxicity at 10 µM. Item: Nc1ncc(-c2ccc(C(F)(F)F)cc2)c(C2CCCNC2)n1 (stereo not given)
27.1

Requested field: cytotoxicity at 10 µM. Item: Cc1csc(C2CCCN(C(=O)c3cnn4ccc(C)nc34)C2)n1 (stereo not given)
2.56

Requested field: cytotoxicity at 10 µM. Item: CS(=O)(=O)Cc1cccc(C(=O)NCC2Cc3ccccc3O2)c1 (stereo not given)
-16.5

---

# assayText: Toxicity liver stage against HepG2, at 10uM
# Format: cell-based
# Design: test concentration 10 uM, cell line HepG2-A16-CD81EGFP
# conditionDetails: human, HepG2-A16-CD81EGFP cells; read-out: INHIBITION
metric: cytotoxicity at 10 µM (%)
Lab book: enter the figure in %, no units written.

Below, each entry is followed by its recorded cytotoxicity at 10 µM result.
In [3]: df
Out[3]:
                                   molecule                 metric    val
0  COc1ccc(C)cc1C(C)NS(=O)(=O)c1ccc2c(c1)CCC(=O)N2 (stereo not drawn)  cytotoxicity at 10 µM    -33
1  Cc1nccn1C1CCCN(C(=O)c2cc3c(F)cccc3[nH]2)C1 (stereo not drawn)  cytotoxicity at 10 µM   5.32
2  COc1cc(C)c(C2CC(=O)NCc3nc4sccn4c32)cc1C (stereo not drawn)  cytotoxicity at 10 µM  -2.19
3            O=C(NCc1ccccc1Cn1cncn1)C1CCCC1  cytotoxicity at 10 µM  -2.34
4  CN1CCCC2(CCN(S(=O)(=O)c3ccc(-c4cnco4)s3)C2)C1=O (stereo not drawn)  cytotoxicity at 10 µM   5.84
5  Cc1nc(CCN(C)C(=O)C2COc3ccccc3C2)no1 (stereo not drawn)  cytotoxicity at 10 µM  -19.7
6       O=C(NCCNc1ncccn1)NCc1cccc(OC(F)F)c1  cytotoxicity at 10 µM  -2.64
7  Cc1cnn(CC2CN(C=C3NN=C(c4occc4C)O3)CCO2)c1 (stereo not drawn)  cytotoxicity at 10 µM   -2.9

Requested field: cytotoxicity at 10 µM. Item: Clc1ccccc1C1CN(CCc2ccncc2)CCO1 (stereo not drawn)
3.61

Requested field: cytotoxicity at 10 µM. Item: Cn1nc(Br)c2c(NCCSCCCO)ncnc21
14.5

Requested field: cytotoxicity at 10 µM. Item: NC(=O)c1cc(C2CCCN(CCOCC(F)(F)F)C2)n[nH]1 (stereo not drawn)
-11.8

Requested field: cytotoxicity at 10 µM. Item: Cc1n[nH]c(SCC(=O)N[C@@H](C)C(N)=O)n1
8.07

Requested field: cytotoxicity at 10 µM. Item: O=C(NC1CCN(CC2CCCC2)C1)N1CCC(OCC2CC2)CC1 (stereo not drawn)
9.86

---

Here, each record is paired with measured cytotoxicity at 10 µM data.
# assayText: Toxicity liver stage against HepG2, at 10uM
# Assay type: cell-based
# Design: test concentration 10 uM, cell line HepG2-A16-CD81EGFP
# conditionDetails: human, HepG2-A16-CD81EGFP cells; read-out: INHIBITION
Lab book: enter the figure in %, no units written.

Below, each entry is followed by its recorded cytotoxicity at 10 µM result.
>>> df
                                   compound  unitabbreviation    val
0  O=C(CN1CCCC(c2ccc(C(=O)O)cc2)C1)NC1CC1 (stereo not drawn)                 %  -9.87
1  COc1ccc(CNC2CCc3ncnn3C2)cc1OCC1CC1 (stereo not drawn)                 %  -8.74
2  CN(C)C(=O)COC[C@]12COC[C@H]1CN(Cc1ccccc1)C2                 %  -5.78
3  CO[C@H]1CC[C@H]2[C@H]1OCCN2C(=O)c1ccc(C)nc1                 %   -141
4  CCC1CN(Cc2ccccc2)CCN1Cc1nnc(C2CCC2)o1 (stereo not drawn)                 %  -11.2

Requested field: cytotoxicity at 10 µM. Item: O=S(=O)(c1ccccc1)N1CCCCC1c1cc[nH]n1 (stereo not drawn)
7.65

Requested field: cytotoxicity at 10 µM. Item: COc1ccc(CCN2C(=O)O[C@@H]3CN(C4CCSCC4)C[C@@H]32)cc1
1.6

Requested field: cytotoxicity at 10 µM. Item: CCc1cc(N2CCN(c3ccc(Cl)cn3)CC2)n2nccc2n1
23.1

Requested field: cytotoxicity at 10 µM. Item: c1cc(CNc2nnc(Cc3ccsc3)o2)cs1
0.369

Requested field: cytotoxicity at 10 µM. Item: CNc1nc2c(c(C(=O)N3CCCC3)n1)CN(C(=O)c1cccs1)CC2
-112

Requested field: cytotoxicity at 10 µM. Item: COc1ccc2c(c1)C(C(=O)N(C)CCCc1cnn(C)c1)CC(=O)N2 (stereo not drawn)
-46.9

Requested field: cytotoxicity at 10 µM. Item: CCN1CCOC(CNCc2cccc(OCc3ccccn3)c2)C1 (stereo not drawn)
-13.4

Requested field: cytotoxicity at 10 µM. Item: COc1ccccc1CN(CC1CCCO1)C(=O)c1cc(C)n[nH]1 (stereo not drawn)
-2.28

---

Here, each record is paired with measured cytotoxicity at 10 µM data.
# assayText: Toxicity liver stage against HepG2, at 10uM
# Type: cell-based
# Parameters: test concentration 10 uM, cell line HepG2-A16-CD81EGFP
# conditionDetails: human, HepG2-A16-CD81EGFP cells; read-out: INHIBITION
Lab book: enter the figure in %, no units written.

Below, each entry is followed by its recorded cytotoxicity at 10 µM result.
>>> df
                                   molecule     val
0  Cn1cc(CN2CCOC3(CCCN(C(=O)c4ccco4)C3)C2)cn1 (configuration not stated)   -23.9
1  O=C(N1CCOCC1)N1C[C@@H]2OCCN(C(=O)c3ccco3)[C@@H]2C1    -135
2  c1ccc(-c2cc(NCCCC3CCOC3)n3nccc3n2)cc1 (configuration not stated)  -0.309
3  CCC[C@@H]1CN(C(=O)c2c(F)ccc(OC)c2F)C[C@H]1C(=O)O   0.542
4  Cc1ccc(-c2nc(CN3CCN(C(=O)C4CC4)CC3)cs2)o1   -12.6

Requested field: cytotoxicity at 10 µM. Item: CC(Cn1cccn1)NC(=O)N(C)Cc1ccc(Cl)s1 (configuration not stated)
-11.9

Requested field: cytotoxicity at 10 µM. Item: COc1cc2nc(C)sc2cc1NC(=O)CN(C)C(C)C
-3.93

Requested field: cytotoxicity at 10 µM. Item: Cc1c(-c2ccccc2)ncn1CC(c1cccnc1)N1CCOCC1 (configuration not stated)
2.11

Requested field: cytotoxicity at 10 µM. Item: CCN1CCC(NC(=O)N(C)Cc2csc3ccccc23)CC1
-45

Requested field: cytotoxicity at 10 µM. Item: CCCN1CCC(CC(=O)N(C)C(C)c2cncs2)CC1 (configuration not stated)
2.62

Requested field: cytotoxicity at 10 µM. Item: CC(CNC(=O)Nc1ccc(N(C)C)nc1)Cn1cccn1 (configuration not stated)
6.95

---

# assayText: Toxicity liver stage against HepG2, at 10uM
# Assay type: cell-based
# Set-up: test concentration 10 uM, cell line HepG2-A16-CD81EGFP
# conditionDetails: human, HepG2-A16-CD81EGFP cells; read-out: INHIBITION
metric: cytotoxicity at 10 µM
Lab note: write values as number then unit, every time.

Below, each entry is followed by its recorded cytotoxicity at 10 µM result.
>>> df
                                   molecule     val
0  Cc1ccc(F)c(OC2(C(=O)O)CCN(C(=O)c3ccco3)CC2)c1   5.99%
1  Cn1cnc(-c2nc(C(=O)NCCN3CCOCC3)c3ccccn23)c1   -103%
2  CSCc1ccc(C(=O)N2CCN(CC(C)O)CC2)cc1 (configuration not stated)  -6.23%
3     Cc1ncc(-c2ccccn2)c(CCNC(=O)C2CCCC2)n1   16.4%
4  Cc1ccc(CN2CCC3(CC2)CN(c2cnn(C)c2)C(=O)CO3)o1   2.96%

Requested field: cytotoxicity at 10 µM. Item: Cc1noc(NCc2cn(C)nc2-c2ccncc2)n1
-3.48%

Requested field: cytotoxicity at 10 µM. Item: CNC(=O)C(NC(=O)c1c(C)noc1C)c1ccc(F)c(F)c1 (configuration not stated)
-18.3%

Requested field: cytotoxicity at 10 µM. Item: O=C(CN1CCNC1=O)N1CCc2nnc(-c3ccccc3)n2CC1
-46.1%
